Origin of the recorded values: patent US20160138094

# System: TALE_038 (TALE_97 with RVD NG opposite C6) repeat 5 RVD HD to NG (Xanthomonas axonopodis pv. citri (engineered))
# Procedure text: inhibition
# Condition set: 5hmC at target position 6; reduction of primer extension to 50%, estimated
Readout kind: pIC50
Scale: pIC50 equals -log10([C]), with [C] in mol/L.

// field: pIC50; key: TGGATTCCCACTCTTCAGCCCCAGCGTTACAGCATCTTCAGTGGCTTCTTCCACCGTGAGCTCTTCCGTTTCCACATCC / GGATGTGGAAACGGAAGA [t97_C6hmC / p97_rev] ; value = 5.70

====

# Tested on: TALE_038 (TALE_97 with RVD NG opposite C6) repeat 5 RVD HD to NG (Xanthomonas axonopodis pv. citri (engineered))
# Procedure text: inhibition
# Condition set: inhibition of Klenow exo- primer extension, MgCl2, room temperature
Readout kind: pIC50
Scale: pIC50 equals -log10([C]), with [C] in mol/L.

// field: pIC50; key: TGGATTCCCACTCTTCAGCCCCAGCGTTACAGCATCTTCAGTGGCTTCTTCCACCGTGAGCTCTTCCGTTTCCACATCC / GGATGTGGAAACGGAAGA [t97 template / p97_rev primer] ; value = 6.45

====

# Tested on: TALE_037 (TALE_97 with RVD N* opposite C6) repeat 5 RVD HD to N* (position 13 deleted) (Xanthomonas axonopodis pv. citri (engineered))
# Procedure text: inhibition
# Condition set: 5mC at target position 6; inhibition of Klenow exo- primer extension, MgCl2, room temperature
Readout kind: IC50 (nM)
// units = nM; emit number, no label

// field: IC50; key: TGGATTCCCACTCTTCAGCCCCAGCGTTACAGCATCTTCAGTGGCTTCTTCCACCGTGAGCTCTTCCGTTTCCACATCC / GGATGTGGAAACGGAAGA [t97_C6mC / p97_rev] ; value = 51

====

# Test system: TALE_038 (TALE_97 with RVD NG opposite C6) repeat 5 RVD HD to NG (Xanthomonas axonopodis pv. citri (engineered))
# Procedure text: inhibition
# Condition set: 5mC at target position 6; inhibition of Klenow exo- primer extension, MgCl2, room temperature
Readout kind: IC50 (nM)
// units = nM; emit number, no label

// field: IC50; key: TGGATTCCCACTCTTCAGCCCCAGCGTTACAGCATCTTCAGTGGCTTCTTCCACCGTGAGCTCTTCCGTTTCCACATCC / GGATGTGGAAACGGAAGA [t97_C6mC / p97_rev] ; value = 163
